- tested system: T1, recombinant human ROR1 extracellular domain protein (human, UniProt Q01973 30-406)
- T1 construct: extracellular domain; Analyte in solution in the Octet assay; also called human ROR1 ECD
- T1 sequence (Q01973 30-406): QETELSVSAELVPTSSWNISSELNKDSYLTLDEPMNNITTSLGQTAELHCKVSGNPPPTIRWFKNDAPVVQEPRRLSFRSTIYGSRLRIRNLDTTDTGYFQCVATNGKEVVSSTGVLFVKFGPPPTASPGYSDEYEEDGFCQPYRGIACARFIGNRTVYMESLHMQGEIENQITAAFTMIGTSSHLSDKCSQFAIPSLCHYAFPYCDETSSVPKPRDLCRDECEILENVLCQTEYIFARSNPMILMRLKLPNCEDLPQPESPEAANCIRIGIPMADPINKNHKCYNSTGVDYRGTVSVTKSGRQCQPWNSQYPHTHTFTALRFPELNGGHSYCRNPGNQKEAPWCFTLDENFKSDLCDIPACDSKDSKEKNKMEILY
- test method notes: Octet, mono-valent binding to human ROR1
Recorded measurements of koff, one per entry
Please respond with the number in s⁻¹ and leave the unit unwritten.

{"columns": ["binder", "assay value"],
 "data": [
  ["323H7 chimeric rabbit/human IgG antibody (antibody, V domains shown, Rabbit variable regions on human gamma-1 and human kappa constant domains) VH: QEQLKESGGGLVTPGGTLTLTCTASGFTISRYHMTWVRQAPGKGLEWIGHIYVNNDDTDYASWAKGRFTISKTSTTVDLKITSPTTEDTATYFCARLDVGGGGAYIGDIWGQGTLVTVSS VL: QAVVTQTPSSVSAAVGGTVTISCQSSQSVYNNNDLAWYQQKPGQPPKLLIYYASTLASGVSSRFKGSGSGTQFTLAISDLECDDSATYYCAGGYDTDGLDTFAFGGGTEVEVKR", "2.08e-08"],
  ["324C7 chimeric rabbit/human IgG antibody (antibody, V domains shown, Rabbit variable regions on human gamma-1 and human kappa constant domains) VH: QSVEESGGRLVTPGTPLTLTCTVSGFSLSGAGVSWVRQAPGKGLEWIGYIDSGATTYYASWAKGRFTISKASTTVDLKIASPTTEDTATYFCARGYYGMDPWGQGTLVTVSS VL: DIVMTQTPASVEVAVGGTVTIKCQASQNIGSDLAWYQQKPGQPPKLLIYTTSNLASGVPSRFKGSGSGTGFTLTISDLECADAASYCCQGGYFSGRNIYGNAFGGGTEVVVKR", "1.35e-08"],
  ["338H4 chimeric rabbit/human IgG antibody (antibody, V domains shown, Rabbit variable regions on human gamma-1 and human kappa constant domains) VH: QSVEESGGRLVTPGTPLTLTCTVSGFSLSSYAMSWVRQAPGRGLEWIGIIYASGSTYYASWAKGRFTISKTSTTVDLKITSPTTEDTATYFCARIYDGMDLWGPGTLVTVSS VL: DIVMTQTPASVSAAVGGTVTINCQASQNIYSYLSWYQQKPGQPPKRLIYLASTLASGVPSRFKSSGSGTEYTLTISDLECDDAATYYCQSNYNGNYGFGGGTEVEVKR", "1.17e-08"]
]}

Here's the next entry for you.
## Task Requested field: koff. Item: 330F11 chimeric rabbit/human IgG antibody (antibody, V domains shown, Rabbit variable regions on human gamma-1 and human kappa constant domains) VH: QSVEESGGRLVTPGTPLTLTCTVSGFSLNNYWMSWVRQAPGEGLEWIGTISSGAYTWFATWATGRFTISKTSTTVDLSITSPTTEDTATYFCARYSSTTDWTYFNIWGPGTLVTVSS VL: DVVMTQTPASVEAAVGGTVTIKCQASQSINNYLAWYQQKPGQPPKLLIYRASTLESGVPSRFKGSGSGTQFTLTISDLECADAATYYCQSYNGVGRTAFGGGTEVEFKR
## Result 1.26e-08
